sequences and their reported relative CpG methylation activity
Target: DNMT3B catalytic domain (mouse)
Test: relative CpG methylation activity (normalised to average over all NNNCGNNN flanks) (relative (1 = mean)); higher = more methylation of the central CpG
Conditions: system: in vitro, murine catalytic domain; CpG state: hemimethylated substrate pool; residues: 558-859
In all, about 4,100 sequences were measured (“relative CpG methylation activity (normalised to average over all NNNCGNNN flanks)”: median about 0.94, highest 2% from about 1.9 on). This excerpt belongs to a sample that is enriched for the highest values.
test-readout: relative CpG methylation activity

- sequence: "CCCCGAGC"
  target-entity: "DNMT3B catalytic domain (mouse)"
  test-readout: "relative CpG methylation activity"
  measured: 1.93
- sequence: "ATCCGGCG"
  target-entity: "DNMT3B catalytic domain (mouse)"
  test-readout: "relative CpG methylation activity"
  measured: 1.82
- sequence: "CTCCGGTT"
  target-entity: "DNMT3B catalytic domain (mouse)"
  test-readout: "relative CpG methylation activity"
  measured: 1.72
- sequence: "CCTCGAGT"
  target-entity: "DNMT3B catalytic domain (mouse)"
  test-readout: "relative CpG methylation activity"
  measured: 1.5
- sequence: "GATCGAAC"
  target-entity: "DNMT3B catalytic domain (mouse)"
  test-readout: "relative CpG methylation activity"
  measured: 1.16
- sequence: "AGTCGGAT"
  target-entity: "DNMT3B catalytic domain (mouse)"
  test-readout: "relative CpG methylation activity"
  measured: 0.542
- sequence: "CCCCGAGA"
  target-entity: "DNMT3B catalytic domain (mouse)"
  test-readout: "relative CpG methylation activity"
  measured: 1.68
- sequence: "AAGCGCCG"
  target-entity: "DNMT3B catalytic domain (mouse)"
  test-readout: "relative CpG methylation activity"
  measured: 0.713
- sequence: "GAGCGTAT"
  target-entity: "DNMT3B catalytic domain (mouse)"
  test-readout: "relative CpG methylation activity"
  measured: 0.648
- sequence: "GCACGTGG"
  target-entity: "DNMT3B catalytic domain (mouse)"
  test-readout: "relative CpG methylation activity"
  measured: 0.497
- sequence: "GCGCGCCA"
  target-entity: "DNMT3B catalytic domain (mouse)"
  test-readout: "relative CpG methylation activity"
  measured: 0.631
- sequence: "TTCCGGTT"
  target-entity: "DNMT3B catalytic domain (mouse)"
  test-readout: "relative CpG methylation activity"
  measured: 2.2
- sequence: "TTCCGATG"
  target-entity: "DNMT3B catalytic domain (mouse)"
  test-readout: "relative CpG methylation activity"
  measured: 1.47
- sequence: "CGTCGATA"
  target-entity: "DNMT3B catalytic domain (mouse)"
  test-readout: "relative CpG methylation activity"
  measured: 1.84
- sequence: "GAACGTGC"
  target-entity: "DNMT3B catalytic domain (mouse)"
  test-readout: "relative CpG methylation activity"
  measured: 1.03
- sequence: "TCCCGAGC"
  target-entity: "DNMT3B catalytic domain (mouse)"
  test-readout: "relative CpG methylation activity"
  measured: 2.01
- sequence: "TCACGACC"
  target-entity: "DNMT3B catalytic domain (mouse)"
  test-readout: "relative CpG methylation activity"
  measured: 1.17
- sequence: "CTACGCCA"
  target-entity: "DNMT3B catalytic domain (mouse)"
  test-readout: "relative CpG methylation activity"
  measured: 1.78
- sequence: "CTCCGGTC"
  target-entity: "DNMT3B catalytic domain (mouse)"
  test-readout: "relative CpG methylation activity"
  measured: 1.8
- sequence: "ACTCGGCG"
  target-entity: "DNMT3B catalytic domain (mouse)"
  test-readout: "relative CpG methylation activity"
  measured: 1.6
- sequence: "TTCCGGTC"
  target-entity: "DNMT3B catalytic domain (mouse)"
  test-readout: "relative CpG methylation activity"
  measured: 2.04
- sequence: "CCCCGAGG"
  target-entity: "DNMT3B catalytic domain (mouse)"
  test-readout: "relative CpG methylation activity"
  measured: 1.5
